Kindly supply the reported inhibition at 10 min, 10 µM values for the records listed here.
Test system: CYP3A4/5
Test: Inhibitory activity on CYP isoenzymes at a single concentration (liver microsomes)
Assay type: in vitro ADME
Details: pH 7.4, probe midazolam; Final compound concentration: 10 µM; human liver microsomes; substrate Midazolam; read-out: Inhibition rate (%) CYP3A4/5 (Midazolam)
Your answer should be a plain number; it is taken to be in %.

Incoming: State, for CYP3A4/5, measured inhibition at 10 min, 10 µM of the molecule listed here: CNC(=O)c1ccc(NCC#Cc2cc3c(N[C@@H]4CCN(C)C[C@@H]4F)cccn3c2CC(F)(F)F)c(OC)c1 [Cpd-C]
Outgoing: 79

Incoming: Give inhibition at 10 min, 10 µM only, for COc1cc(S(C)(=O)=O)ccc1NCC#Cc1nc2c(N[C@@H]3CCN(C)C[C@@H]3F)cccn2c1CC(F)(F)F [Cpd-B] , using CYP3A4/5 data.
Outgoing: 61

Incoming: Would you please give the reported inhibition at 10 min, 10 µM of [2H]C([2H])([2H])Oc1nc(C(=O)O)ccc1NCC#Cc1cc2c(N[C@@H]3CCN(C)C[C@@H]3F)cccn2c1CC(F)(F)F [Cpd-1] with CYP3A4/5?
Outgoing: 3.4

Incoming: Find inhibition at 10 min, 10 µM for CNC(=O)c1ccc(NCC#Cc2cc3c(N[C@@H]4CCN(C)C[C@@H]4F)cccc3n2CC(F)(F)F)c(OC)c1 [Cpd-A] on CYP3A4/5 and write it down.
Outgoing: 83

* * *

For each record, write down the corresponding IC50.
Target: UniProtKB Q12809
Sequence (Q12809 whole entry): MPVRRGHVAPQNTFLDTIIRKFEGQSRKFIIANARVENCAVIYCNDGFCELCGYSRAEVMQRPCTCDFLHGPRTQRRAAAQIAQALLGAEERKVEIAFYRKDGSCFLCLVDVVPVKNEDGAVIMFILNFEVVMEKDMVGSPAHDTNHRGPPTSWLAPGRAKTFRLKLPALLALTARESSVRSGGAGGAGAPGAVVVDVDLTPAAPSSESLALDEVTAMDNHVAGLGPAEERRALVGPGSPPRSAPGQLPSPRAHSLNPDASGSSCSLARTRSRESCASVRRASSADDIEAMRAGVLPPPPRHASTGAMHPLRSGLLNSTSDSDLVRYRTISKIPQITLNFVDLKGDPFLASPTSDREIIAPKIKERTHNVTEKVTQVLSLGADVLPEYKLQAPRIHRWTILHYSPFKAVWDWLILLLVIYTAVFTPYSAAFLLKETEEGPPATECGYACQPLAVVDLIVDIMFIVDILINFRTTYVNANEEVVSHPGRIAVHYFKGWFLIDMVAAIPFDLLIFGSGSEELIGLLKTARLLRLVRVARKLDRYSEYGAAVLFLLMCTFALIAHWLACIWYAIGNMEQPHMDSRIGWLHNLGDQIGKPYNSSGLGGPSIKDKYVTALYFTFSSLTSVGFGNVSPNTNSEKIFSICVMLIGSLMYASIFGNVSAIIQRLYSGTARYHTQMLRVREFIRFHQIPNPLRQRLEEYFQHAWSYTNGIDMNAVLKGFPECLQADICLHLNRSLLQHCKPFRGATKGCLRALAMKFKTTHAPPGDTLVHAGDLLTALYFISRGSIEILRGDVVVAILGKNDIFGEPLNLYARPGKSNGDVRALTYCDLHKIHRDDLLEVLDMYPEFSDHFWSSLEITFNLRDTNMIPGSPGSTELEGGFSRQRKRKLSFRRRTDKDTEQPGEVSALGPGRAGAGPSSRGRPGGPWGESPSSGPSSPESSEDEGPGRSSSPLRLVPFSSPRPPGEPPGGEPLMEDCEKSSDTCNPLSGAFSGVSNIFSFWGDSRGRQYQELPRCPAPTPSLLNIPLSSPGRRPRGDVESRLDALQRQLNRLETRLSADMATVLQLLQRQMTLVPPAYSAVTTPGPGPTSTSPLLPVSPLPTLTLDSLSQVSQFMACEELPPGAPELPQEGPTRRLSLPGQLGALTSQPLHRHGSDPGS
Assay: Manual patch-clamp test of the inhibitory activity on hERG potassium channel
Settings: HEK293 cell line stably expressing the hERG ion channel, five concentrations 0.37 to 30 µM, n = 2

Incoming: Please supply the value of reported IC50 for the item [2H]C([2H])([2H])Oc1nc(C(=O)O)ccc1NCC#Cc1cc2c(N[C@@H]3CCN(C)C[C@@H]3F)cccn2c1CC(F)(F)F [Cpd-1]
Outgoing: > 30 µM

Incoming: Using known records, supply IC50 for COc1nc(C(=O)O)ccc1NCC#Cc1cc2c(N[C@@H]3CCN(C)C[C@@H]3F)cccn2c1CC(F)(F)F [Cpd-2]
Outgoing: > 30 µM

Incoming: // fetch IC50 given entry CNC(=O)c1ccc(NCC#Cc2cc3c(N[C@@H]4CCN(C)C[C@@H]4F)cccc3n2CC(F)(F)F)c(OC)c1 [Cpd-A]
Outgoing: 19 µM
